Taken from ChEMBL document CHEMBL4270602.

Provide the reported selectivity ratio of each item.
Test: Therapeutic index, ratio of CC50 for human CEM-GFP cells to IC50 for HIV-1 NL4-3 infected in human CEM-GFP cells
Format: toxicity, cell-based
Settings: read-out: Ratio CC50/IC50

Summary for this compound, `Cc1cn([C@H]2C[C@H](N=[N+]=[N-])[C@@H](CO)O2)c(=O)[nH]c1=O` : selectivity ratio is 236

Per the record, `Fc1ccc(-c2csc(N3COc4ccc5ccccc5c4C3)n2)cc1` has selectivity ratio of 106

Record `FC(F)(F)c1ccc(-c2csc(N3COc4ccc5ccccc5c4C3)n2)cc1` , field selectivity ratio: 258

Short answer for `COc1ccc2c3c(ccc2c1)OCN(c1nc(-c2ccc(F)cc2)cs1)C3` : selectivity ratio was 96.2

Noted for `COc1ccc2c3c(ccc2c1)OCN(c1nc(-c2ccc(C(F)(F)F)cc2)cs1)C3` : its selectivity ratio reads 318
